The measurements presented in this section are drawn from ChEMBL document CHEMBL1145536.

# Test system: Mycobacterium tuberculosis
# Test Details: Antimicrobial activity against non replicating persistence Mycobacterium tuberculosis H37Rv in aerobic condition assessed as bacterial density after 7 days
# Format: functional
# Experimental Conditions: 168 h
Listed compounds paired with reported MIC

{"Smiles": "O=C(O)c1cn(C2CC2)c2cc(N3CCNCC3)c(F)cc2c1=O", "MIC": "≤ 0.5 µM"}
{"Smiles": "CN[C@H](CC(C)C)C(=O)N[C@H]1C(=O)N[C@@H](CC(N)=O)C(=O)N[C@H]2C(=O)N[C@H]3C(=O)N[C@H](C(=O)N[C@H](C(=O)O)c4cc(O)cc(O)c4-c4cc3ccc4O)[C@H](O)c3ccc(c(Cl)c3)Oc3cc2cc(c3O[C@@H]2O[C@H](CO)[C@@H](O)[C@H](O)[C@H]2O[C@H]2C[C@](C)(N)[C@H](O)[C@H](C)O2)Oc2ccc(cc2Cl)[C@H]1O", "MIC": "15.5 µM"}

For record "N[C@@H]1CONC1=O" the listed MIC is 60.5 µM
